Test: amyloid nucleation score (Sup35N fusion, yeast selection) (log enrichment); library NNK2; higher = more nucleation; inactive = no reads after selection;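 note: zero at mode of non-aggregating sequences after 7 days selection at 30°C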
Each record here notes measured amyloid nucleation score.
Output: the number by itself.

Some substances with recorded amyloid nucleation score:
FHAYTGCVWVTCQYGWRRDT = 1.9
DCSLELVNRRGSGIVQCAGY = 1.1

Find the recorded amyloid nucleation score belonging to DLKRLAWMLILSIYNRSTIM and report it.
-0.221

Find the recorded amyloid nucleation score belonging to RMRFYWWDVSMLYTCSYSDF and report it.
1.04

Find the recorded amyloid nucleation score belonging to MHKAFWPNLALFVMNGYGGV and report it.
0.304

Find the recorded amyloid nucleation score belonging to DYSLSWVRYSFAYRGVSKDG and report it.
0.061

* * *

Assay: amyloid nucleation score (Sup35N fusion, yeast selection) (log enrichment); library NNK3; higher = more nucleation; inactive = no reads after selection
attributeMeasured: amyloid nucleation score

HKILRSVGFGRILAYGLLDI = inactive
ICEQKEFPYVEQWLD = inactive
PTIQQDWIAFYIHSCEFLVL = inactive

* * *

Experiment: amyloid nucleation score (Sup35N fusion, yeast selection) (log enrichment); library NNK2; higher = more nucleation; inactive = no reads after selection
attributeMeasured: amyloid nucleation score
Output: the number by itself.

ATRCFSNWDTSACYMWKC = 8.07

Find the recorded amyloid nucleation score belonging to VWTLYYHHIGSAFSTCNRLF and report it.
4.5

Find the recorded amyloid nucleation score belonging to LDGFLLSISLRINKRLSSGR and report it.
4.79

Find the recorded amyloid nucleation score belonging to CWMIQLVVLEWCAHGPRVAN and report it.
-0.304

Find the recorded amyloid nucleation score belonging to YRRLCWPWFRKLFEVYRDN and report it.
-0.554

Find the recorded amyloid nucleation score belonging to VNMYSWVKVCWEILYTDRAG and report it.
-0.906

Find the recorded amyloid nucleation score belonging to PCCQEACDGCEGNRDLPGEA and report it.
1.65

Find the recorded amyloid nucleation score belonging to ELCPAT and report it.
0.219

Find the recorded amyloid nucleation score belonging to LWVVILGVGTSSNESYCKYV and report it.
-0.427

* * *

Test: amyloid nucleation score (Sup35N fusion, yeast selection) (log enrichment); library NNK2; higher = more nucleation; inactive = no reads after selection
Please enter class 1 where amyloid nucleation score is greater than or equal to 0.6, and class 0 where it is lower.

Example entries and their recorded answers appear below.
LVLIFMDLSTGWLLSSISDI = class 1
DSHADAISVAVKVGRWRYND = class 1
SSNSEDDGNWMMLLSNKYRI = class 0
VNSKNYV = class 0
TMCDSIVIEYGPCIFDSSSS = class 1

Given the entry WDTLARYSGIQLVFE , answer whether its amyloid nucleation score meets or surpasses 0.6.
class 0

Given the entry CLKEMVKVCRGWWRANGSGR , answer whether its amyloid nucleation score meets or surpasses 0.6.
class 0

Given the entry NYSVWVIPVFMDEHIVLFMY , answer whether its amyloid nucleation score meets or surpasses 0.6.
class 1

Given the entry NYMRVNWLLFSSSQPVICVG , answer whether its amyloid nucleation score meets or surpasses 0.6.
class 0

Given the entry LDRYLG , answer whether its amyloid nucleation score meets or surpasses 0.6.
class 0

Given the entry SLLYQQDGCNLVVFYQFLV , answer whether its amyloid nucleation score meets or surpasses 0.6.
class 1

Given the entry MGARSIRDRSSVGK , answer whether its amyloid nucleation score meets or surpasses 0.6.
class 0

Given the entry GVVWKYRIFPWTFPHNFFHL , answer whether its amyloid nucleation score meets or surpasses 0.6.
class 0

Given the entry YYVWVI , answer whether its amyloid nucleation score meets or surpasses 0.6.
class 0

* * *

Assay: amyloid nucleation score (Sup35N fusion, yeast selection) (log enrichment); library NNK1; higher = more nucleation; inactive = no reads after selection
attributeMeasured: amyloid nucleation score

Some substances with recorded amyloid nucleation score:
SIRSVLFVSTVDDTPPYQGF = inactive
WFSRTPWYFVFRCNDDMDCS = inactive
MVHWVILYAADFPIETLNK = inactive
YLNTLRR = inactive
YLCSSVPLSEHNLILSITWD = inactive

Find the recorded amyloid nucleation score belonging to WMSLIGKNMRMIMVIKKWAL and report it.
inactive

* * *

Each record here notes measured amyloid nucleation score.
Assay: amyloid nucleation score (Sup35N fusion, yeast selection) (log enrichment); library NNK2; higher = more nucleation; inactive = no reads after selection
Output: the number by itself.

Some sequences with recorded amyloid nucleation score:
FLLCIRLRVNNNVRNN = -0.763
IIPLMLFSTLWGFKVHMKGY = -0.207

Now consider a different sequence.
Find the recorded amyloid nucleation score belonging to IYQPCCCV and report it.
0.76

* * *

Assay: amyloid nucleation score (Sup35N fusion, yeast selection) (log enrichment); library NNK2; higher = more nucleation; inactive = no reads after selection
attributeMeasured: amyloid nucleation score

Some substances with recorded amyloid nucleation score:
KVKGLILDHDYRFRI = inactive
VCNFLYNGLEFVNLECFWR = inactive
KRVFAKVTVMDHSNSG = inactive
AGGWVFFQGESSSLSNTSGS = inactive
YSFCKCVIVGIWFRLGWCQA = inactive
CDISRGLILYTHGLLFWTIR = inactive
LKCVHCYIRHLNFYFILPLC = inactive
AKLDWHIRTAEWGLPKLLLT = -0.467
RRGHVL = 1.82
HYSIIWTAS = 0.233

Find the recorded amyloid nucleation score belonging to SMGMLP and report it.
-0.641

Find the recorded amyloid nucleation score belonging to KKSSECHKSEG and report it.
0.361

Find the recorded amyloid nucleation score belonging to DCYRPYWKVFIPLVIFGA and report it.
-0.076

Find the recorded amyloid nucleation score belonging to QEVFSN and report it.
-0.849

Find the recorded amyloid nucleation score belonging to MYKVPTCPMFMVDNYYKLLN and report it.
inactive

Find the recorded amyloid nucleation score belonging to AISRRALKTHHFKWGCNVG and report it.
0.266

Find the recorded amyloid nucleation score belonging to CRSFAVTDLRVYVKF and report it.
2.12

Find the recorded amyloid nucleation score belonging to TSPRRACWSIQSDDWFGFEW and report it.
1.33

Find the recorded amyloid nucleation score belonging to SPCMCGYITINSLRPLLTFS and report it.
5.8

Find the recorded amyloid nucleation score belonging to MVLNIDCFCDFYLALSCMSI and report it.
5.58

Find the recorded amyloid nucleation score belonging to YVMNQPDKVWSHIESGNKRH and report it.
-1.34

Find the recorded amyloid nucleation score belonging to CNRLVVLSSCNWYRDVADSL and report it.
0.115

Find the recorded amyloid nucleation score belonging to SFVLSSHKA and report it.
0.175

* * *

Each record here notes measured amyloid nucleation score.
Test: amyloid nucleation score (Sup35N fusion, yeast selection) (log enrichment); library NNK2; higher = more nucleation; inactive = no reads after selection
Output: the number by itself.

Some sequences with recorded amyloid nucleation score:
DMNEDVGLGNKFC = 0.119
SKCCASLTQLITTGVLAYRA = 0.489
KAHIAVDGIMA = 0.117

Find the recorded amyloid nucleation score belonging to KIVVSFWLLPCFGKLFFPSV and report it.
-0.618

Find the recorded amyloid nucleation score belonging to IRTLMYISHSAGGYLL and report it.
-0.576

Find the recorded amyloid nucleation score belonging to YSLMCQFHSSPISFFLCWLP and report it.
8.16

* * *

Assay: amyloid nucleation score (Sup35N fusion, yeast selection) (log enrichment); library NNK1; higher = more nucleation; inactive = no reads after selection
Please enter 1 where amyloid nucleation score is greater than or equal to 0.4, and -1 where it is lower.

Example entries and their recorded answers appear below.
SGCCVASFYHRDSILSCEKA = 1
LTNATFQLWLLCCDGPLRDM = 1
YAKVSAIERRCWVMSVTYPD = -1
RNYCDPGAFGVWGVTGHHRV = -1
KCLIYGKFIVRCVPINV = -1
ITMNVRSSYGLSVIMIELGL = 1

Now, please, on to the next sequence.
Given the entry DNINKLSWTRSILELG , answer whether its amyloid nucleation score meets or surpasses 0.4.
-1

* * *

Assay: amyloid nucleation score (Sup35N fusion, yeast selection) (log enrichment); library NNK2; higher = more nucleation; inactive = no reads after selection
attributeMeasured: amyloid nucleation score

Find the recorded amyloid nucleation score belonging to VYLSSLDSRMRLSTCFRE and report it.
-0.19

Find the recorded amyloid nucleation score belonging to MQYCLGFDLNLRNYICHPGR and report it.
7.3

* * *

Test: amyloid nucleation score (Sup35N fusion, yeast selection) (log enrichment); library NNK2; higher = more nucleation; inactive = no reads after selection
attributeMeasured: amyloid nucleation score
Output: the number by itself.

Some sequences with recorded amyloid nucleation score:
CCPASYMQYEFLGRMSGGCW = 2.82
FTAMNIGNACMESQALPWNL = 0.198
RSSTLNRRKNKGGSTNVDCL = 0.355
RRSGGPGEDGGSYERQFTSR = 0.95
SASMHWYSSRCDTL = 0.275

Now consider a different sequence.
Find the recorded amyloid nucleation score belonging to KGGWYNNYGAVNKNGWCSDK and report it.
-0.501

Value source: the supplement of paper PMC12042874
